// human LTA4 hydrolase (Homo sapiens, UniProt P09960) pIC50 records
Answers are plain numbers, as −log10 of the molar value.

Go through the list and state pIC50 for each entry.
1. c1cc(-c2ccc(Oc3ccc(OCc4ccc5[nH]cnc5c4)cc3)cc2)[nH]n1 [Example 81]
2. c1cc(-c2ccc(Oc3ccc(OCC4CCOC4)cc3)cc2)[nH]n1 (stereo not drawn) [Example 92]
3. c1ccc(CCOc2ccc(Oc3ccc(-c4ccn[nH]4)cc3)cc2)cc1 [Example 66]

Response:
[7.85, 8.48, 6.02]

Report pIC50 for each item below.
1. c1ccc(CCOc2ccc(Oc3ccc(-c4ccn[nH]4)cc3)cc2)nc1 [Example 33]
2. c1cnc(COc2ccc(Oc3ccc(-c4ccn[nH]4)cc3)cc2)nc1 [Example 75]
3. CC(COc1ccc(Oc2ccc(-c3ccn[nH]3)cc2)cc1)c1ccccc1 (stereo not drawn) [Example 32]
4. c1cc(-c2ccc(Cc3ccc(OCCN4CCOCC4)cc3)cc2)[nH]n1 [Example 25]
5. c1cc(-c2ccc(Oc3ccc(OCc4cncs4)cc3)cc2)[nH]n1 [Example 70]

Response:
1: 8.28; 2: 8.18; 3: 6.44; 4: 9.30; 5: 8.31

----------
# Test system: LTB4 production in human whole blood
# EXPERIMENTAL PROTOCOL: LTB4 production inhibition assay in human whole blood (calcimycin-stimulated)
# Type: cell-based
# STATED CONDITIONS: heparinized human whole blood, 15 min 37° C., calcimycin 20 μM 30 min, plasma LTB4 by HTRF
MEASUREMENT TYPE: IC50 (µM)
Give bare numbers, in µM.

c1cc(-c2ccc(Oc3ccc(OC4CCCOC4)cc3)cc2)[nH]n1 (centres unmarked); 2
CC(CCOc1ccc(Oc2ccc(-c3ccn[nH]3)cc2)cc1)n1cccn1 (centres unmarked); 3.11
c1cc(-c2ccc(Oc3ccc(OCC4CCOCC4)cc3)cc2)[nH]n1; 1.46

Each of the following entries comes with a recorded value; kindly state IC50 for each.
1. c1cnc(COc2ccc(Oc3ccc(-c4ccn[nH]4)cc3)cc2)nc1
2. c1cc(-c2ccc(Oc3ccc(OCc4cn5ccsc5n4)cc3)cc2)[nH]n1
3. c1cc(-c2ccc(Oc3ccc(OCCc4cn[nH]c4)cc3)cc2)[nH]n1
4. Cc1ncoc1COc1ccc(Oc2ccc(-c3ccn[nH]3)cc2)cc1
5. c1cc(CCOc2ccc(Oc3ccc(-c4ccn[nH]4)cc3)cc2)ccn1

Response:
[2.84, 4.5, 2.5, 2.55, 3.12]

----------
# SYSTEM UNDER TEST: human LTA4 hydrolase (Homo sapiens)
# Sequence (P09960 1-611): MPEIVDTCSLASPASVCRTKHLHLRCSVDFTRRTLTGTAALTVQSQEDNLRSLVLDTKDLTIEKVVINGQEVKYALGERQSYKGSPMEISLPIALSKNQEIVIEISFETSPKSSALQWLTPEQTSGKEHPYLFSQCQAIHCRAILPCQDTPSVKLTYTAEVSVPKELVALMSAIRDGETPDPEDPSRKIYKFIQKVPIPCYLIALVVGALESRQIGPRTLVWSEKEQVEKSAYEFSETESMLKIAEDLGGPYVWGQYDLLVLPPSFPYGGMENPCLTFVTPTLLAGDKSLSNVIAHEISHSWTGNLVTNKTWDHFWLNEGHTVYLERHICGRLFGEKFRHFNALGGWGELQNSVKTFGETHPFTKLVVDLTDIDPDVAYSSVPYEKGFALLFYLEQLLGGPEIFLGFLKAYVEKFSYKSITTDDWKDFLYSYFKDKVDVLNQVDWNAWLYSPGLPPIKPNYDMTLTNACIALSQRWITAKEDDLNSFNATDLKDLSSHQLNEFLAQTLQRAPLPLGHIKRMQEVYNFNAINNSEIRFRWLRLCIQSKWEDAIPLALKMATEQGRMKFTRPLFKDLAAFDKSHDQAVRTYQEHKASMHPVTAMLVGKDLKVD
For each of the compounds below, state its IC50.
Give bare numbers, in nM.

Sample answers from the record:
c1cc(-c2ccc(Oc3ccc(OCCc4cn[nH]c4)cc3)cc2)[nH]n1; 7
O=C1CC[C@@H](Oc2ccc(Oc3ccc(-c4ccn[nH]4)cc3)cn2)CN1; 1.9
c1coc(COc2ccc(Oc3ccc(-c4ccn[nH]4)cc3)cc2)c1; 65.6
Cn1ccc(COc2ccc(Oc3ccc(-c4ccn[nH]4)cc3)cc2)n1; 12.9
Cn1nccc1COc1ccc(Oc2ccc(-c3ccn[nH]3)cc2)cc1; 1.4
O=C1NCC(COc2ccc(Oc3ccc(-c4ccn[nH]4)cc3)cc2)O1 (stereo not shown); 1.3

Value sought for every listed compound: IC50.
1. c1cc(-c2ccc(Oc3ccc(OCCC4CCOCC4)cc3)cc2)[nH]n1
2. O=C1CC[C@@H](COc2ccc(Oc3ccc(-c4ccn[nH]4)cc3)cc2)N1
3. c1cc(-c2ccc(Oc3ccc(OCCc4cnoc4)cc3)cc2)[nH]n1
4. CC(COc1ccc(Oc2ccc(-c3ccn[nH]3)cc2)cc1)Cn1cccn1 (stereo not shown)
5. O=C1CC[C@@H](COc2ccc(Oc3ccc(-c4ccn[nH]4)cn3)cc2)N1
6. O=C1CC[C@H](Oc2ccc(Oc3ccc(-c4cc[nH]n4)cc3)cc2)CN1
7. O=C1CCCN1CCCOc1ccc(Oc2ccc(-c3ccn[nH]3)cc2)cc1

Response:
1. 7.9
2. 0.2
3. 6.1
4. 2.7
5. 0.2
6. 0.5
7. 0.7

Batch lookup, IC50 per entry.
1. c1ccc2[nH]c(NCCOc3ccc(Oc4ccc(-c5ccn[nH]5)cc4)cc3)nc2c1
2. CN1CC(COc2ccc(Oc3ccc(-c4ccn[nH]4)cc3)cc2)CC1=O (stereo not shown)
3. c1cc(-c2ccc(Oc3ccc(OCc4cocn4)cc3)cc2)[nH]n1
4. c1cc(-c2ccc(Oc3ccc(OCc4ccc5ncsc5c4)cc3)cc2)[nH]n1
5. c1cc(-c2ccc(Oc3ccc(OCC4CCCOC4)cc3)cc2)[nH]n1 (stereo not shown)
6. O=C1N[C@@H](COc2ccc(Oc3ccc(-c4ccn[nH]4)cc3)cc2)CO1
7. c1ccc(COc2ccc(Oc3ccc(-c4ccn[nH]4)cc3)cc2)cc1
8. O=C1CC[C@H](COc2ccc(Oc3ccc(-c4ccn[nH]4)cc3)cc2)O1

Response:
0.2
0.5
4.2
59.5
2.9
0.3
142
0.8

Prompt: Requested read-out: IC50. Entry: `Cc1nnsc1COc1ccc(Oc2ccc(-c3ccn[nH]3)cc2)cc1`
Response: 1
